STUDY_SYSTEM: T1, CK2α (recombinant, GenScript) (UniProt P68400 1-391)
T1 construct: CK2α, catalytic alpha subunit of casein kinase II; No catalogue number, species or construct is printed; also called CK2α subunit; CK2 alpha; source: bought: GenScript
T1 sequence (P68400 whole entry): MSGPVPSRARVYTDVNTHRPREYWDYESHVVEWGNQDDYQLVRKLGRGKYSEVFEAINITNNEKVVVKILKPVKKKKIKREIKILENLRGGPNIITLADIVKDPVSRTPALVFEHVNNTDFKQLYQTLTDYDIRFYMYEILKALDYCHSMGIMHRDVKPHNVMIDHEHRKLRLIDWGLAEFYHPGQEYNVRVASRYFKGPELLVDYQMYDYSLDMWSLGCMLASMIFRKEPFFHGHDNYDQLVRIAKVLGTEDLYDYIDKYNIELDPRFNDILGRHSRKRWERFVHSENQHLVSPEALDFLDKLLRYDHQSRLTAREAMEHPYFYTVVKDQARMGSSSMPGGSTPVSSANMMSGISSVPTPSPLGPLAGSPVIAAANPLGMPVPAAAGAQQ
METHOD_SUMMARY: SPR; Biacore T200; MOTS-c or K14Q MOTS-c (10 μg/mL, 10 mM sodium acetate pH 5.0) immobilised on CM5 chip (278 RU and 193 RU); first 70 nM CK2α or CK2β, then CK2α at 2.5, 5.0, 10 and 20 nM flowed at 30 μL/min in 0.01 M HEPES, 0.15 M NaCl, 0.3 mM EDTA, 0.05% tween
RUN_CONDITIONS: both partners purified
ENDPOINT_NAME: pKd
To interpret pKd, take it as minus log10 of a concentration measured in moles per litre.

MRWQEMGYIFYPRKLR (MOTS-c, human, 16-amino acid microprotein encoded in the mitochondrial 12S rRNA region; also called WT MOTS-c; synthetic MOTS-c; source: synthetic peptide, bought: GenScript; for the co-IP injected into mice (7.5 mg/kg) and found in tissue lysate) [MOTS-c (mitochondrial open reading frame of the 12S ribosomal RNA type-c), wild type] | 9.00

Switching to the query record.
Prompt line: Need pKd of MRWQEMGYIFYPRQLR (peptide, UniProt A0A0C5B5G6 1-16, looked up, MOTS-c, human, natural variant m.1382A>C causing K14Q; source: synthetic peptide, bought: GenScript) [K14Q MOTS-c (naturally occurring MOTS-c variant)] , thanks.
Response line: 7.79

Numbers sourced from paper PMC11570452.
